- system.name: RARβ2 (Homo sapiens, UniProt P10826)
- Construct: expressed in transfected cells
- Sequence (P10826 1-448 isoform P10826-2): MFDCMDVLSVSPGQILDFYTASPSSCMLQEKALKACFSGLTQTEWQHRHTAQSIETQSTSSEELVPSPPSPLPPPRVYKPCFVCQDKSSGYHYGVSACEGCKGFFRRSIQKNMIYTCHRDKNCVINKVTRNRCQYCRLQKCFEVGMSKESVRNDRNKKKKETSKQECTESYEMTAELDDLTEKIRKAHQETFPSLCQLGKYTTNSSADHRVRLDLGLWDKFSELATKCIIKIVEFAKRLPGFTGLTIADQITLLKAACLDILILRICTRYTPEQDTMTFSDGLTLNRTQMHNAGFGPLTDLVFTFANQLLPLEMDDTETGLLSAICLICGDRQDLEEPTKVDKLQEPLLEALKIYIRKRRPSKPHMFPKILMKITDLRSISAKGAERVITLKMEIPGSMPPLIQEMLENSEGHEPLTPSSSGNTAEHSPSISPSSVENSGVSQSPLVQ
- method.description: Receptor Selection and Amplification Technology (R-SAT) functional receptor assay
- Assay type: cell-based
- run.parameters: Table 1, efficacy relative to the maximal response of the reference ligand Am-580
property: % Eff. (%)
Respond with the bare value in %.

Please review the entries below; each comes with its answer.
# compound, reading
rows = [
    ("CCCCCCCCc1ccc(-c2ccc(C(=O)O)cc2)cc1 [Compound 53]", 99),
    ("CCCCCCCCc1ccc(-c2ccc(C(=O)O)cc2)cc1 [Compound 35]", 83),
]

Exercise: Name the recorded % Eff. of the item CCCCCCCCc1ccc(-c2ccc(C(=O)O)cc2)cc1 [Compound 6] in your answer.
Solution: 104

Exercise: Specify reported % Eff. for the compound shown: O=C(O)c1ccc(-c2ccc(OCCC=C(C3CC3)C3CC3)cc2)cc1 [Compound 26]
Solution: 36

Exercise: Kindly indicate its recorded % Eff.. Item: O=C(O)c1ccc(-c2ccc(OCCC=C(C3CC3)C3CC3)cc2)cc1 [Compound 47]
Solution: 58

Exercise: Annotate the compound `CCCCCCCc1ccc(-c2ccc(C(=O)O)cc2)cc1` with its measured % Eff..
Solution: 64

###

- system.name: RARβ2 (Homo sapiens)
- Construct: expressed in transfected cells
- method.description: Receptor Selection and Amplification Technology (R-SAT) functional receptor assay
- Format: cell-based
- run.parameters: Table 2, efficacy relative to the maximal response of the reference ligand Am-580
Entries and their % Eff. values follow.
Field format: number, assumed %, no unit text.

Some compounds with known % Eff. results, for comparison:
# compound, measurement.unit, % Eff.
measured = [
    ("CCCCCCCCc1ccc(-c2ccc(C(=O)OCCc3ccccn3)cc2)cc1 [Compound 40]", "%", 82),
    ("CCCCCCCc1ccc(-c2ccc(C(=O)OCc3ccco3)cc2)cc1 [Compound 17]", "%", 33),
    ("CCCCCCCCc1ccc(-c2ccc(C(=O)OCCc3ccccn3)cc2)cc1 [Compound 28]", "%", 70),
    ("CCCCCCCOc1ccc(-c2ccc(C(=O)OCCC#N)cc2)cc1", "%", 42),
    ("CCCCCCCCc1ccc(-c2ccc(C(=O)OCCc3ccccn3)cc2)cc1 [Compound 14]", "%", 93),
]

Next compound, % Eff. to be filled in.
Exercise: Recall the reported % Eff. of CCCCCCCc1ccc(-c2ccc(C(=O)OCc3ccco3)cc2)cc1 [Compound 21] on RARβ2 (Homo sapiens) and write it down.
Solution: 106
